assay: Pharmacokinetics in dogs (plasma concentration by HPLC); format: in vivo, dog (beagle); conditions: dog, plasma, po, 2 mg/kg/day, Dog 1, day 1, 7 h; 2 mg/kg/day PO
quantity.measured: concentration at 7 h
Mention the unit after the number when you answer.

Which concentration at 7 h is reported for this compound? c1cc(Nc2nccc(-c3cccs3)n2)cc(OCCn2ccnc2)c1
122 ng/mL

###

test: Pharmacokinetics in dogs (plasma concentration by HPLC); format: in vivo, dog (beagle); conditions: dog, plasma, po, 2 mg/kg/day, one dog (Dog 1), day 5, 4.0 h; 2 mg/kg/day PO; heading: Plasma concentration
quantity.measured: concentration at 4 h (ng/mL)
Numbers only, in ng/mL.

Sample CCN(CC)CCOc1ccc(Nc2nccc(-c3ccncc3)n2)cc1.Cl.Cl [Compound 3, reference compound] — what was its concentration at 4 h?
55
